Taken from patent US20230174507A1.

Molecular target: ACSS2 in MDA-MB-468 cells (Homo sapiens, UniProt Q9NR19)
Construct: endogenous in cells
Experiment: Cellular fatty-acid IC50: 13C-acetate incorporation into fatty acids (palmitate), LC-MS
Conditions: hypoxic conditions (1% O2), 75% charcoal stripped serum, 5 hours, 13C-acetate into palmitate, read-out: Cellular Fatty-acid IC50 High Serum MDA468
Experimental: Cellular Fatty-Acid IC50 Determination: The cellular activity of ACSS2 was measured in MDA-MB-468 cells under hypoxic conditions by tracing the incorporation of labelled carbons from ^13C-acetate into newly synthesized fatty acids. […] The level of ^13C-acetate incorporation into fatty acids (palmitate) was measured by LC-MS analysis and IC50 as described below: […] The relative palmitate concentration was measured by LC-MS in reconstructed selected ion monitoring (RSIM) mode and negative ion mode. […]
pIC50: −log10 of the molar value.
measured_parameter: pIC50

Cc1cccc(C)c1-c1cc(OCCN2CCCC2)cc(-c2[nH]c(C)c(C(=O)Nc3cccc(C(F)(F)C4CC4)c3)[n+]2[O-])c1 [Compound 183]
< 7.30
Cc1cncc(C)c1-c1cc(-c2[nH]c(C)c(C(=O)Nc3cccc(C(F)(F)C4CC4)c3)[n+]2[O-])ccc1OC(F)F [Compound 115]
> 7.70
CCC(F)(F)c1cccc(NC(=O)c2c(C)[nH]c(-c3ccc(OC)c(-c4c(Cl)cccc4Cl)c3)[n+]2[O-])c1 [Compound 126]
7.30 to 7.70
CNC(=O)c1cccc(NC(=O)c2c(C)[nH]c(-c3ccc(OC)c(-c4c(F)cccc4F)c3)[n+]2[O-])c1 [Compound 184]
> 7.70
COc1ccc(-c2[nH]c(C)c(C(=O)Nc3cccc(C(F)(F)C4CC4)c3)[n+]2[O-])cc1-c1c(C)cccc1C [Compound 104]
7.30 to 7.70
CCC(F)(F)c1cccc(NC(=O)c2c(C)[nH]c(-c3cccc(-c4nccnc4C)c3)[n+]2[O-])c1 [Compound 110]
> 7.70
CNC(=O)c1cccc(NC(=O)c2c(C)[nH]c(-c3ccnc(-c4c(C)cccc4C)c3)[n+]2[O-])c1 [Compound 178]
> 7.70
CCC(F)(F)c1cccc(NC(=O)c2c(C)[nH]c(-c3cc(-c4c(C)cccc4C)c(OC)cn3)[n+]2[O-])c1 [Compound 157]
< 7.30

// Input: COc1ccc(-c2[nH]c(C)c(C(=O)Nc3cccc(C(=O)N(C)C)c3)[n+]2[O-])cc1-c1c(C)cccc1C [Compound 119] . Output its pIC50 only.
> 7.70

# return recorded pIC50 for input CCC(F)(F)c1cccc(NC(=O)c2c(C)[nH]c(-c3ccc(OC)c(-c4c(C)cccc4C)n3)[n+]2[O-])c1 [Compound 149]
> 7.70

Note down pIC50 recorded for COc1cc(F)c(-c2[nH]c(C)c(C(=O)Nc3cccc(C(F)(F)F)c3)[n+]2[O-])cc1-c1c(F)cccc1F [Compound 207]
< 7.30

Supply recorded pIC50 for COc1ccc(-c2[nH]c(C)c(C(=O)Nc3cccc(C(C)(F)F)c3)[n+]2[O-])cc1-c1c(C)cccc1C [Compound 120] here.
> 7.70

Supply pIC50 value. Item: Cc1cccc(C)c1-c1cc(-c2[nH]c(C)c(C(=O)Nc3cccc(C(F)(F)C4CC4)c3)[n+]2[O-])cc(C(C)O)c1 (stereo not shown) [Compound 143]
7.30 to 7.70

###

Biological target: human ACSS2 protein (Homo sapiens)
Construct: purchased OriGene Technologies, Inc
Sequence (Q9NR19 whole entry): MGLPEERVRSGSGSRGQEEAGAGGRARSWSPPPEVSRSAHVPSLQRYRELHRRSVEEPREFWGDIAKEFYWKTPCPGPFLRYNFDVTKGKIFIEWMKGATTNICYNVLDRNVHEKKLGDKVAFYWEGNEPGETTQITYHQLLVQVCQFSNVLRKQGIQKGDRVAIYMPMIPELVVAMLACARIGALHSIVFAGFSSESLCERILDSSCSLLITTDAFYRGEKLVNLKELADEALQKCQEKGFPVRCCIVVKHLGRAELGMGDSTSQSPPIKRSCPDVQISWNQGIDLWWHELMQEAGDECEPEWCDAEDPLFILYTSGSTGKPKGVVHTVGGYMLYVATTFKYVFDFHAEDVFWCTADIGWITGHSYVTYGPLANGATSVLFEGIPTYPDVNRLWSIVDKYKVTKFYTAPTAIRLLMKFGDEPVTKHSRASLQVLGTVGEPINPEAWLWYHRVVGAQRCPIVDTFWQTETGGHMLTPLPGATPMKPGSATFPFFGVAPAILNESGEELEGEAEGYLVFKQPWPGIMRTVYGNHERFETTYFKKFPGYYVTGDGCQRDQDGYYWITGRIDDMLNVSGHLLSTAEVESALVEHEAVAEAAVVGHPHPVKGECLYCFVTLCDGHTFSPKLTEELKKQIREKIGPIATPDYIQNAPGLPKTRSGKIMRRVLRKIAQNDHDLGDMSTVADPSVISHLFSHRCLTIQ
Assay: ACSS2 cell-free activity assay (pyrophosphatase-coupled, Biomol green)
Conditions: 10 nM human ACSS2, 90 minutes at 37 C, absorbance at 620 nm; read-out: ACSS2 Biochemical IC50
pIC50: −log10 of the molar value.
measured_parameter: pIC50

Worked cases, pIC50 given:
CCC(F)(F)c1cccc(NC(=O)c2c(C)[nH]c(-c3cccc(-c4ncncc4C)c3)[n+]2[O-])c1
> 9.00
CCC(F)(F)c1cccc(NC(=O)c2c(C)[nH]c(-c3cc(CCN(C)C)c(OC)c(-c4c(C)cccc4C)c3)[n+]2[O-])c1
> 9.00
Cc1cccc(C)c1-c1cc(-c2c(C)cccc2C)cc(-c2[nH]c(C)c(C(=O)Nc3cccc(C(F)(F)C4CC4)c3)[n+]2[O-])c1
7.52 to 9.00
CNS(=O)(=O)c1cccc(NC(=O)c2c(C)[nH]c(-c3ccc(OC)c(-c4c(C)cccc4C)c3)[n+]2[O-])c1
> 9.00
CCC(F)(F)c1cccc(NC(=O)c2c(C)[nH]c(-c3cccc(-c4nccnc4C)c3)[n+]2[O-])c1
> 9.00
Cc1cccc(C)c1-c1cc(-c2[nH]c(C)c(C(=O)Nc3cccc(C(F)(F)F)c3)[n+]2[O-])ccc1F
> 9.00
CCC(F)(F)c1cccc(NC(=O)c2c(C)[nH]c(-c3ccc(C(C)C)c(-c4c(C)cccc4C)c3)[n+]2[O-])c1
7.52 to 9.00
CCC(F)(F)c1cccc(NC(=O)c2c(C)[nH]c(-c3ccc(OC)c(-c4ccncn4)c3C)[n+]2[O-])c1
< 7.52

Give reported pIC50 for COc1ccc(-c2[nH]c(C)c(C(=O)Nc3cccc(C(=O)N4CCNCC4)c3)[n+]2[O-])cc1-c1c(C)cccc1C (human ACSS2 protein (Homo sapiens))
< 7.52

Tell me pIC50 of COc1ccc(-c2[nH]c(C)c(C(=O)Nc3cccc(S(=O)(=O)N(C)C)c3)[n+]2[O-])cc1-c1c(C)cccc1C when tested on human ACSS2 protein (Homo sapiens).
7.52 to 9.00

Give pIC50; test system human ACSS2 protein (Homo sapiens); compound C/C=C\c1cc(C)c(-c2cc(-c3[nH]c(C)c(C(=O)Nc4cccc(C(F)(F)CC)c4)[n+]3[O-])ccc2OC)c(C)c1
7.52 to 9.00

Answer briefly: pIC50 recorded on human ACSS2 protein (Homo sapiens) for COc1cc(F)c(-c2[nH]c(C)c(C(=O)Nc3cccc(C(F)(F)F)c3)[n+]2[O-])nc1-c1c(C)cc(F)cc1C
7.52 to 9.00

System human ACSS2 protein (Homo sapiens). Read-out pIC50. Item CCC(F)(F)c1cccc(NC(=O)c2c(C)[nH]c(-c3ccc(Cl)c(-c4c(C)cccc4C)c3)[n+]2[O-])c1 . Report value.
> 9.00

###

Molecular target: ACSS2 in MDA-MB-468 cells (Homo sapiens, UniProt Q9NR19)
Construct: endogenous in cells
Assay: Cellular fatty-acid IC50: 13C-acetate incorporation into fatty acids (palmitate), LC-MS
Conditions: hypoxic conditions (1% O2), 75% charcoal stripped serum, 5 hours, 13C-acetate into palmitate, read-out: Cellular Fatty-acid IC50 High Serum MDA468
Method: Cellular Fatty-Acid IC50 Determination: The cellular activity of ACSS2 was measured in MDA-MB-468 cells under hypoxic conditions by tracing the incorporation of labelled carbons from ^13C-acetate into newly synthesized fatty acids. […] The level of ^13C-acetate incorporation into fatty acids (palmitate) was measured by LC-MS analysis and IC50 as described below: […] The relative palmitate concentration was measured by LC-MS in reconstructed selected ion monitoring (RSIM) mode and negative ion mode. […]
measured_parameter: IC50

Some solved entries appear below for comparison.
Cc1cccc(C)c1-c1cc(CN(C)C)cc(-c2[nH]c(C)c(C(=O)Nc3cccc(C(F)(F)C4CC4)c3)[n+]2[O-])c1 [Compound 175]
< 20 nM
COc1cc(F)c(-c2[nH]c(C)c(C(=O)Nc3cccc(C(F)(F)C4CC4)c3)[n+]2[O-])nc1-c1c(C)cccc1C [Compound 202]
> 50 nM
CCC(F)(F)c1cccc(NC(=O)c2c(C)[nH]c(-c3ccc(OC(F)F)c(-c4c(C)cccc4C)c3)[n+]2[O-])c1 [Compound 103]
20 to 50 nM
CCC(F)(F)c1cccc(NC(=O)c2c(C)[nH]c(-c3ccc(Cl)c(-c4c(C)cccc4C)c3)[n+]2[O-])c1 [Compound 108]
20 to 50 nM
COc1ccc(-c2[nH]c(C)c(C(=O)Nc3cccc(C(F)(F)F)c3)[n+]2[O-])cc1-c1c(C)cccc1C [Compound 171]
< 20 nM
Cc1cccc(C)c1-c1cc(F)cc(-c2[nH]c(C)c(C(=O)Nc3cccc(C(F)(F)C4CC4)c3)[n+]2[O-])c1 [Compound 129]
> 50 nM
CNC(=O)c1cccc(NC(=O)c2c(C)[nH]c(-c3cccc(-c4c(C)cccc4C)c3)[n+]2[O-])c1 [Compound 176]
< 20 nM
CCC(F)(F)c1cccc(NC(=O)c2c(C)[nH]c(-c3ccc(OC)cc3)[n+]2[O-])c1 [Compound 101]
20 to 50 nM
CCC(F)(F)c1cccc(NC(=O)c2c(C)[nH]c(-c3cccc(-c4ncncc4C)c3)[n+]2[O-])c1 [Compound 109]
< 20 nM
Cc1[nH]c(-c2ccc(OCCCN3CCCC3)cc2)[n+]([O-])c1C(=O)Nc1cccc(C(F)(F)C2CC2)c1 [Compound 174]
> 50 nM

Dear colleague, please send me the reported IC50 for CCC(F)(F)c1cccc(NC(=O)c2c(C)[nH]c(-c3ccc(C#N)c(-c4c(C)cccc4C)c3)[n+]2[O-])c1 [Compound 114] when you can.
< 20 nM

For the compound COc1cc(Cl)c(-c2[nH]c(C)c(C(=O)Nc3cccc(C(F)(F)C4CC4)c3)[n+]2[O-])cc1-c1c(C)cccc1C [Compound 198] , give its measured IC50 value.
> 50 nM

Quickly give me recorded IC50 for CCC(F)(F)c1cccc(NC(=O)c2c(C)[nH]c(-c3cc(-c4c(C)cccc4C)c(OC)cc3O)[n+]2[O-])c1 [Compound 123]
< 20 nM

Name the recorded IC50 of the item COc1ccc(-c2[nH]c(C)c(C(=O)Nc3cccc(-c4ncon4)c3)[n+]2[O-])cc1-c1c(C)cccc1C [Compound 190] in your answer.
< 20 nM
